# TEST DESCRIPTION: Thermostability (Tm, Tonset, Tagg) by Nanotemper DSF
# Assay type: physicochemical
# Set-up: key: temperatures in °C
# ASSAY SETUP: Average of two replicates; anti-Fel d1 VHH
OBSERVABLE: Tonset ø (mean)
Answers are plain numbers.

Known results for molecules:
DAB22110-1-1-C3 (protein) VHH: QLQLVESGGGLVQPGGSLRLSCEASGFTFKYYTMSWYRQAPGKERELVATITNGDRTNYADSVKGRFTISRDNAKNTLYLQMNSLKPYDTAVYYCNRHLPLLQIWGQGTQVTVSS
58.06
SDAB22110-4-3-B02: anti-Fel d1 VHH clone, SEQ ID NO: 54 (protein) VHH: QVQLVESGGGLVQPGGSLRLSCVASGFTFSFYTMEWYRQAAGKQRELVAGLTASGTTHYADSAKGRFTISRDNAWNTVFLQMNGLKPEDTAVYYCNAYSGYRDYWGQGTQVTVSL
33.78

Now, please, on to the next molecule.
Measured Tonset ø (mean), SDAB22110-4-3-E05: anti-Fel d1 VHH clone, SEQ ID NO: 55 (protein) VHH: QVQLVESGGGLVQPGGSLRLSCVGSGFTFSQYAMRWYRQVPGKARELVAAISRSGDFMYYADSVKGRFTISRDNVKSAVILQMNSLKPEDTAVYYCYGQATISDTLWGQGTQVTVSS : 35.67
